Provenance of the data: ChEMBL document CHEMBL4673406

experiment: AUC (0 to 24 hrs) in nu/nu mouse xenografted with human SK-OV-3 cells measured in tumor at 100 mg/kg, po bid by uHPLC-MS/MS analysis; format: ADME, organism-based; parameters: time < 24 hr, route oral, dose 100 mg/kg
measuredProperty: AUC at 24 h (µM·h)
Write the answer as a number in µM·h, unit excluded.

For reference, reported AUC at 24 h for NS(=O)(=O)NCCNc1nonc1C(=NO)Nc1ccc(F)c(Br)c1 stands at 48

----------
target: hERG (Homo sapiens); test: Inhibition of human ERG at 10 uM by patch clamp method relative to control
Sequence (Q12809 whole entry): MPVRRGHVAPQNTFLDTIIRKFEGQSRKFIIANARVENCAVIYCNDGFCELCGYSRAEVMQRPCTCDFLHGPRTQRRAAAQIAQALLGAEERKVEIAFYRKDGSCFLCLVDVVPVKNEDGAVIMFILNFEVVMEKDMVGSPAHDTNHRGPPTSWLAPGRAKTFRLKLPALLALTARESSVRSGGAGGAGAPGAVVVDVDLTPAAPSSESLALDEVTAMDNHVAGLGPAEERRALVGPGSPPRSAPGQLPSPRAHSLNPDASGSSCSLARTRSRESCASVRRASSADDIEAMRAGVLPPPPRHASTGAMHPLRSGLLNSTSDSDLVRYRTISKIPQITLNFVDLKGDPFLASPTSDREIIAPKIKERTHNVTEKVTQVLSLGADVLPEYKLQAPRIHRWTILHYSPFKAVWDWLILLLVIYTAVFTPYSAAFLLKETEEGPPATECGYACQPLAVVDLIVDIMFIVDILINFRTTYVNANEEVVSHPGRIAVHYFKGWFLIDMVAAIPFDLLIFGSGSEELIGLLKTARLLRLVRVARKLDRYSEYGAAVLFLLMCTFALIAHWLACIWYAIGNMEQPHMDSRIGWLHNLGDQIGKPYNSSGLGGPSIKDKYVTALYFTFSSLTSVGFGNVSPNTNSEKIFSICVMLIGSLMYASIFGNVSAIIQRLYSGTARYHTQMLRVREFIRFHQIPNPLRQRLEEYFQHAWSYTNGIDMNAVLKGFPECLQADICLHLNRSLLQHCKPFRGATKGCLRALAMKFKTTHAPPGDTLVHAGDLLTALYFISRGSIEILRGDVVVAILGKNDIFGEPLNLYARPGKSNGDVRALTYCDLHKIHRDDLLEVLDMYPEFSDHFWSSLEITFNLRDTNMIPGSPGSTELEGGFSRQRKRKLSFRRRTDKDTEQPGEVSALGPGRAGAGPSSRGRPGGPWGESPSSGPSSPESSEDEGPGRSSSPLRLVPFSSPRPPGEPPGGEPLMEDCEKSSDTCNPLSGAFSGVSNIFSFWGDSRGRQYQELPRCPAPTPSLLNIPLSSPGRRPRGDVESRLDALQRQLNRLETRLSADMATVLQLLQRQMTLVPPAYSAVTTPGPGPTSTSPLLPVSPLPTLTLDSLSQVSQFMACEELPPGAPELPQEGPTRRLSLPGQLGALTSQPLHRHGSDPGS
measuredProperty: inhibition at 10 µM (%)
Answer in %, number only, no unit symbol.

Lab entry: hERG (Homo sapiens) assay, compound C[C@@H](NC(=O)c1ccc(Cl)cc1)[C@H]1CC[C@@H](c2ccnc3ccc(F)cc32)CC1 , inhibition at 10 µM = 87
